// each record: one item and its pKi for UniProt:P28223
Sequence (P28223 whole entry): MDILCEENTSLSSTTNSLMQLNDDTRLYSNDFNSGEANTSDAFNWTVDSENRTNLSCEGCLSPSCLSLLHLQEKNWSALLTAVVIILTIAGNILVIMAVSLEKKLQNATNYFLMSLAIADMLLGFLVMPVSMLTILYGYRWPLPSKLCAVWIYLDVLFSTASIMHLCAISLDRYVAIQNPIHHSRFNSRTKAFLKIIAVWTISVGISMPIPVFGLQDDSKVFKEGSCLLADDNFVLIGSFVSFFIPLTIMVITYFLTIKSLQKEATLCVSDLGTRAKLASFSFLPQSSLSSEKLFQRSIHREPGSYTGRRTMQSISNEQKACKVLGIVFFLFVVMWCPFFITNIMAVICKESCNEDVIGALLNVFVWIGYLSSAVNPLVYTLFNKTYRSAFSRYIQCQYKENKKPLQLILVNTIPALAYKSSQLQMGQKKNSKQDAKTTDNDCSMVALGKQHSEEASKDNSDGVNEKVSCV
Answers are plain numbers, as −log10 of the molar value.

# annotated cases, reported pKi shown
> print(dat)
                                   compound  endpoint.value
1  CN1CCc2c(c3cccc4c3n2-c2ccccc2CC4)C1 [Compound 6a, reference compound]            7.62
2  CN1CCc2c(c3cccc4c3n2Cc2ccccc2O4)C1 [Compound 13b]            6.03

Now, please, on to the next compound.
I'm curious: which pKi was measured for CN1CCc2c(c3cccc4c3n2Cc2ccccc2C4)C1 [Compound 13a] tested on UniProt:P28223?
6.13

---

measurement-target: Opioid κ (Homo sapiens, UniProt P41145)
Sequence (P41145 whole entry): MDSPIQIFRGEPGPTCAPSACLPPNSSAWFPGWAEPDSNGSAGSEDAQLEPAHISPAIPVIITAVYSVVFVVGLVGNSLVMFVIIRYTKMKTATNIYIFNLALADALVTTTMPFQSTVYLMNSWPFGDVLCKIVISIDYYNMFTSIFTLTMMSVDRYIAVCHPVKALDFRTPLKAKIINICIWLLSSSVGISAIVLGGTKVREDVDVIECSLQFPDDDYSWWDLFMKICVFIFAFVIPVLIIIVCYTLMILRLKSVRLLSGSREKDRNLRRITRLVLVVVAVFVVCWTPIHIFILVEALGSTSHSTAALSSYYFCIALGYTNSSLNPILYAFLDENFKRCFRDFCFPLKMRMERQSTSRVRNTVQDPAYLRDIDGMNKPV
measured-property: pKi
Answers are plain numbers, as −log10 of the molar value.

I'd like to know its pKi. The compound in question is CN1CCc2c(c3cccc4c3n2-c2ccccc2CC4)C1 [Compound 6a, reference compound]
5.66

---

measurement-target: Opioid δ (Homo sapiens)
Sequence (P41143 whole entry): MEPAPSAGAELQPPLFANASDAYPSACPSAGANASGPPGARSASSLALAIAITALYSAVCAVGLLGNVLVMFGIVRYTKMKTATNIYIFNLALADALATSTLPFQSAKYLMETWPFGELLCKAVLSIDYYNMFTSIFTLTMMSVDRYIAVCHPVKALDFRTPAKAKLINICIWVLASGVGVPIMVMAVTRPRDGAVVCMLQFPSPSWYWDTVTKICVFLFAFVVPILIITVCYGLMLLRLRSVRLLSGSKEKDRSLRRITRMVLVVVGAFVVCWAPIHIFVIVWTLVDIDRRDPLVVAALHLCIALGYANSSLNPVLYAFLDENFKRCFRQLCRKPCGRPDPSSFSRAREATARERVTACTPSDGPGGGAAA
measured-property: Ki (µM)
Give bare numbers, in µM.

# get_value(readout='Ki', item= CN1CCc2c(c3cccc4c3n2Cc2ccccc2O4)C1 [Compound 13b] )
0.31

---

measurement-target: Serotonin transporter (Homo sapiens, UniProt P31645)
Sequence (P31645 whole entry): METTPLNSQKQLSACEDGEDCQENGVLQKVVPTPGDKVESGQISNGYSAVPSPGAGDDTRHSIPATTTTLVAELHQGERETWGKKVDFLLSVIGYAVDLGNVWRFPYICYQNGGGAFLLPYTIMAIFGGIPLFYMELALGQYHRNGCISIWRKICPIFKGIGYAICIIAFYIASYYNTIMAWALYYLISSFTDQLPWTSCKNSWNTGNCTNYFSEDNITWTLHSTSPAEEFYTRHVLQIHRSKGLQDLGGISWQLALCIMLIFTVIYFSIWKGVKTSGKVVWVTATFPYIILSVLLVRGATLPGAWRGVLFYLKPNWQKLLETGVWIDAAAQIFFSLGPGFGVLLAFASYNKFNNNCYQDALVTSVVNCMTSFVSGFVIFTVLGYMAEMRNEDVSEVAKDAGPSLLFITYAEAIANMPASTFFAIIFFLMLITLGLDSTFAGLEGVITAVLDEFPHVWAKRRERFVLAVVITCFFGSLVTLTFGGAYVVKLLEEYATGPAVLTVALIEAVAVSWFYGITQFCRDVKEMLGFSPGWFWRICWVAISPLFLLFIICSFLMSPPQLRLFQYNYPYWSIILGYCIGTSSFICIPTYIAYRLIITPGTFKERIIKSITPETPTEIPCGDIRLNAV
assay-procedure: Receptor binding, serotonin transporter
study-conditions: Transporters: Serotonin
measured-property: Ki (nM)
Numbers only, in nM.

May I ask what Ki has been recorded for CN1CCc2c(c3cccc4c3n2-c2ccccc2CC4)C1 [Compound 6a, reference compound] ?
2190

---

measurement-target: Histamine H3 (Homo sapiens, UniProt Q9Y5N1)
Sequence (Q9Y5N1 whole entry): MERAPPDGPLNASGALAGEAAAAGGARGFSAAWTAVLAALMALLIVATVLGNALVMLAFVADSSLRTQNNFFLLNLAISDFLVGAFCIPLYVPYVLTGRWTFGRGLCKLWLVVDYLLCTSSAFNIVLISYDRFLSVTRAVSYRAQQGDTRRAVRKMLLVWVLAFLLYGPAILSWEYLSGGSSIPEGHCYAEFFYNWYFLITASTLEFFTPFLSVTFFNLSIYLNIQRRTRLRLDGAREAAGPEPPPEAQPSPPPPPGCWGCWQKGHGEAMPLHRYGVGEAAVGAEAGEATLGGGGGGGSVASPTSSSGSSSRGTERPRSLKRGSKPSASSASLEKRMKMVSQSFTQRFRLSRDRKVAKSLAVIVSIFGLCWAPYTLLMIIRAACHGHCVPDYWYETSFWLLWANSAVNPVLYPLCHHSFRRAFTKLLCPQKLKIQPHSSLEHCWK
measured-property: Ki

Query: Ki; subject: CN1CCc2c(c3cccc4c3n2Cc2ccccc2O4)C1 [Compound 13b]
> 10 µM

---

measurement-target: Dopamine D3 (Homo sapiens, UniProt P35462)
Sequence (P35462 whole entry): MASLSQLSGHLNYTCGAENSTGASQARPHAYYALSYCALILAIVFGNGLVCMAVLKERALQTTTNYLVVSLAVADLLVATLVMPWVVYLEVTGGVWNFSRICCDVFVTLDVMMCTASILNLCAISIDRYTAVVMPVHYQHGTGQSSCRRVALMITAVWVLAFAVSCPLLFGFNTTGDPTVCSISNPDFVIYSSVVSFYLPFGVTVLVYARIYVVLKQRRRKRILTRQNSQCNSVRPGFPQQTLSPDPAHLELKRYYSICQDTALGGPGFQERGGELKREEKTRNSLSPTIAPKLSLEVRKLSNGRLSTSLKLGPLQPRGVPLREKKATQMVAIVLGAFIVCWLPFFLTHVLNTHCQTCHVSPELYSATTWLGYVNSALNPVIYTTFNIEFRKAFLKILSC
measured-property: Ki (nM)
Numbers only, in nM.

What Ki value was documented for this compound, CN1CCc2c(c3cccc4c3n2Cc2ccccc2C4)C1 [Compound 13a] ?
1500

---

Measured pKi on α-Adrenergic α2C (Homo sapiens) follows.
Sequence (P18825 whole entry): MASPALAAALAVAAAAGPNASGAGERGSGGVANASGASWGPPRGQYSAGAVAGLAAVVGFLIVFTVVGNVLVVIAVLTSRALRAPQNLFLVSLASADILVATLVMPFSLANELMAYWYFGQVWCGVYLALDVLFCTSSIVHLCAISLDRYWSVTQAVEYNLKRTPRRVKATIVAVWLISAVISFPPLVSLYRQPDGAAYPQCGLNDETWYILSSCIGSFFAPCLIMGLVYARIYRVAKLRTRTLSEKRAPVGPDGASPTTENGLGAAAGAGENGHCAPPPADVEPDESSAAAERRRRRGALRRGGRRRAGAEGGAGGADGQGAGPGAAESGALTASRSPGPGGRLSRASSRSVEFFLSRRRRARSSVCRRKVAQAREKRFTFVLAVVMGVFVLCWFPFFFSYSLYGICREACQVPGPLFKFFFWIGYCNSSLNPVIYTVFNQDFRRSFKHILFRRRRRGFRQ
Numbers only, as −log10 of the molar value.

Recorded pKi, per entry:
> print(dat)
                                   molecule  measured.property  endpoint.value
1  CN1CCc2c(c3cccc4c3n2Cc2ccccc2O4)C1 [Compound 13b]                pKi            6.29
2  CN1CCc2c(c3cccc4c3n2-c2ccccc2CC4)C1 [Compound 6a, reference compound]                pKi            6.76

Next molecule, please.
For the molecule shown here, CN1CCc2c(c3cccc4c3n2Cc2ccccc2C4)C1 [Compound 13a] , give the reported pKi.
6.11

---

Parameter Ki, tested on α-Adrenergic α1A (Homo sapiens, UniProt P35348), listed per item.
Sequence (P35348 whole entry): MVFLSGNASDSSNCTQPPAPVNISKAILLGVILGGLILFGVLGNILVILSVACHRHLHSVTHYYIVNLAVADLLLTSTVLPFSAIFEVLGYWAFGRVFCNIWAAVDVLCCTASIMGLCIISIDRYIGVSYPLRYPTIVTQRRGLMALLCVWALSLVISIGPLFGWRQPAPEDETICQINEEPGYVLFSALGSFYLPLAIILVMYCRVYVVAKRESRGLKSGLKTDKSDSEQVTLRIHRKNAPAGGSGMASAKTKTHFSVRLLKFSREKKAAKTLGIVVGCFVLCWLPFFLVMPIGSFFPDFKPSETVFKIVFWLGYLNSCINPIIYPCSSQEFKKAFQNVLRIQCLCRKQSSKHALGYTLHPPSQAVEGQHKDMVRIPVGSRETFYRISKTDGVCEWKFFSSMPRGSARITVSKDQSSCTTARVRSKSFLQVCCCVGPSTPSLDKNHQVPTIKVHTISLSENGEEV
Numbers only, in µM.

> print(dat)
                                   compound  endpoint.value
1  CN1CCc2c(c3cccc4c3n2Cc2ccccc2O4)C1 [Compound 13b]            5.86

# get_value(readout='Ki', item= CN1CCc2c(c3cccc4c3n2-c2ccccc2CC4)C1 [Compound 6a, reference compound] )
2.37

---

measurement-target: Muscarinic M3 (Homo sapiens, UniProt P20309)
Sequence (P20309 whole entry): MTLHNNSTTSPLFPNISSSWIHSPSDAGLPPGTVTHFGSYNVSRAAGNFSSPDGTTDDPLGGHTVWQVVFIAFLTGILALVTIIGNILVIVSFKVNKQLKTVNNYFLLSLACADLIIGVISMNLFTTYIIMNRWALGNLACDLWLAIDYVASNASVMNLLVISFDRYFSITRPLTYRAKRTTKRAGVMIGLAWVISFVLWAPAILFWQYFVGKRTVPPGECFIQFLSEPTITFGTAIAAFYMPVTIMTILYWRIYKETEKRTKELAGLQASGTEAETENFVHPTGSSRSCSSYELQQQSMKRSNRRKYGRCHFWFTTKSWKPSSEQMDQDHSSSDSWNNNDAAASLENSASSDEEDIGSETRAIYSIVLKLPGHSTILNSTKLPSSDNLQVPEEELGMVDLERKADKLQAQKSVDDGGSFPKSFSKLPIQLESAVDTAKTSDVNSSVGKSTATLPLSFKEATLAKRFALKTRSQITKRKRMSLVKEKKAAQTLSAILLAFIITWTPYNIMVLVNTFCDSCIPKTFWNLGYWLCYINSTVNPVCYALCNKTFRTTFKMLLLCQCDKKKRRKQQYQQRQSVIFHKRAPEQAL
measured-property: Ki (µM)
Numbers only, in µM.

Ki lookup needed for CN1CCc2c(c3cccc4c3n2-c2ccccc2CC4)C1 [Compound 6a, reference compound] , thanks.
3.76
